Give measured Kp at 8 h for each item. Keep answers brief.
Assay: Colon pharmacokinetics in mice
Assay type: in vivo
Details: colon to plasma concentration ratio at 8 h time point; 30 mg/kg oral gavage in 0.5% methyl-cellulose; Male C57BL/6 Mouse; read-out: Mouse TD Colon/Plasma @ 8

What the record says about CNS(=O)(=O)c1ccc(S(=O)(=O)NC(=O)Nc2c3c(cc4c2CCC4)CCC3)c(O)c1 [Compound 124] : Kp at 8 h is 26

The compound listed as CC(C)(O)c1nc(CO)c(S(=O)(=O)NC(=O)Nc2c3c(c(C#N)c4c2CCC4)CCC3)s1 [Compound 122] shows Kp at 8 h equal to 3530

Documented Kp at 8 h of CC(C)c1cc(C#N)c(F)c(C(C)C)c1NC(=O)NS(=O)(=O)c1sc(C(C)(C)O)nc1CCO [Compound 102] : 802

In plain terms, CC(C)c1cc(C#N)cc(C(C)C)c1NC(=O)NS(=O)(=O)c1sc(C(C)(C)O)nc1CO [Compound 101] has a documented Kp at 8 h of 3000

Recorded Kp at 8 h (compound CCC(C)c1cc(C#N)c(F)c(C(C)C)c1NC(=O)NS(=O)(=O)c1sc(C(C)(C)O)nc1CO (stereo not drawn) [Compound 113] ): 4560

Entry CNS(=O)(=O)c1ccc(S(=O)(=O)NC(=O)Nc2c(C(C)C)cc(C#N)c(F)c2C(C)C)c(OC)c1 [Compound 118] — recorded Kp at 8 h = 5950

---

System: IL-1β production in PMA-differentiated THP-1 cells
Experiment: IL-1β production in PMA-differentiated THP-1 cells stimulated with gramicidin (hTHP-1 assay, 2% fetal bovine serum)
Assay type: cell-based, human
Conditions: average IC50; hTHP-1 assay containing 2% fetal bovine serum; class symbols
pIC50: −log10 of the molar value.
measured-parameter: pIC50

Recorded pIC50 (molecule CNS(=O)(=O)c1ccc(S(=O)(=O)NC(=O)Nc2c(C(C)C)cc(C#N)c(F)c2C(C)C)c(OC)c1 [Compound 120] ): 6.70 to 7.40

For this molecule ( CNS(=O)(=O)c1ccc(S(=O)(=O)NC(=O)Nc2c(C(C)C)cc(C#N)c(F)c2C(C)C)c(OC)c1 [Compound 118] ), measured pIC50 is 6.00 to 6.70

---

Tested on: IL-1β production in PMA-differentiated THP-1 cells
Assay: IL-1β production in PMA-differentiated THP-1 cells stimulated with gramicidin (hTHP-1 assay, 2% fetal bovine serum)
Format: cell-based, human
Conditions: Homo sapiens, THP-1, average IC50; hTHP-1 assay containing 2% fetal bovine serum; class symbols
pIC50: −log10 of the molar value.
Can you tell me pIC50 for the items I'm about to list?

// pIC50 value for CCC(C)c1cc(C#N)c(F)c(C(C)C)c1NC(=O)NS(=O)(=O)c1sc(C(C)(C)O)nc1CO (stereo not shown) [Compound 113] : 6.00 to 6.70

Please fill in: pIC50 reported for COC(=O)c1sc2c(c1NC(=O)NS(=O)(=O)c1ncc(C(C)(C)O)s1)CCCC2 [Compound 304] = 4.52 to 5.30

Item: CC(C)c1cc(C#N)c(F)c(C(C)C)c1NC(=O)NS(=O)(=O)c1cc(C(C)(C)O)no1 [Compound 301] | pIC50: 6.00 to 6.70

Data point: CNS(=O)(=O)c1ccc(S(=O)(=O)NC(=O)Nc2c(C(C)C)cncc2C(C)C)c(CO)c1 [Compound 105] ; pIC50 = 5.30 to 6.00

The compound CC(C)c1cncc(C(C)C)c1NC(=O)NS(=O)(=O)c1sc(C(C)(C)O)nc1CO [Compound 104] showed pIC50 equal to 5.30 to 6.00

The value of pIC50 measured for the compound CC(C)(O)c1nc(CO)c(S(=O)(=O)NC(=O)Nc2c3c(nc4c2CCC4)CCC3)s1 [Compound 111] turned out to be 5.30 to 6.00

// CC(C)c1cc(C#N)c(F)c(C(C)C)c1NC(=O)NS(=O)(=O)c1sc(C(C)(C)O)nc1CO [Compound 123] : pIC50 value = 6.00 to 6.70

// CC(C)c1cc(C#N)cc(C2CC2)c1NC(=O)NS(=O)(=O)c1sc(C(C)(C)O)nc1CO [Compound 121] : pIC50 value = 5.30 to 6.00

// field: pIC50; key: CC(C)c1c(F)c(C#N)cc(C2CCOCC2)c1NC(=O)NS(=O)(=O)c1sc(C(C)(C)O)nc1CO [Compound 112] ; value = 5.30 to 6.00

The recorded pIC50 for entry CC(C)c1cc(C#N)cc(CCO)c1NC(=O)NS(=O)(=O)c1sc(C(C)(C)O)nc1CO [Compound 114] equals 4.52 to 5.30

Entry CNS(=O)(=O)c1ccc(S(=O)(=O)NC(=O)Nc2c(C(C)C)cc(C#N)c(F)c2C(C)C)c(O)c1 [Compound 117] — recorded pIC50 = 6.70 to 7.40

The compound listed as CNS(=O)(=O)c1ccc(S(=O)(=O)NC(=O)Nc2c(C(C)C)cncc2C(C)C)cc1CO [Compound 109] shows pIC50 equal to 5.30 to 6.00

According to the records, this compound CC(C)(O)c1nc(CO)c(S(=O)(=O)NC(=O)Nc2c3c(c(C#N)c4c2CCC4)CCC3)s1 [Compound 122] displays pIC50 of 5.30 to 6.00

The value of pIC50 measured for the compound CNS(=O)(=O)c1ccc(S(=O)(=O)NC(=O)Nc2c(C(C)C)cc(C#N)cc2C(C)C)c(C(=O)OC)c1 [Compound 115] turned out to be 4.52 to 5.30

Short answer for CC1CCc2c1nc1c(c2NC(=O)NS(=O)(=O)c2sc(C(C)(C)O)nc2CO)CCC1 (stereo not shown) [Compound 202] : pIC50 was 6.00 to 6.70

Input CNS(=O)(=O)c1ccc(S(=O)(=O)NC(=O)Nc2c3c(nc4c2CCC4)CCC3)c(OC)c1 [Compound 108] . Output pIC50: 5.30 to 6.00

Value of pIC50 reported for the compound CC(C)c1cc2c(c(C(C)C)c1NC(=O)NS(=O)(=O)c1sc(C(C)(C)O)nc1CO)COC2 [Compound 106] is 6.00 to 6.70

The compound CC(C)c1cc(C#N)c(F)c(C(C)C)c1NC(=O)NS(=O)(=O)c1sc(C(C)(C)O)nc1CCO [Compound 102] showed pIC50 equal to 6.70 to 7.40

Please fill in: pIC50 reported for CNS(=O)(=O)c1ccc(S(=O)(=O)NC(=O)Nc2c3c(cc4c2CCC4)CCC3)c(O)c1 [Compound 124] = 4.52 to 5.30

The compound listed as CC(C)c1cc(C#N)cc(C(C)C)c1NC(=O)NS(=O)(=O)c1sc(C(C)(C)O)nc1CO [Compound 101] shows pIC50 equal to 6.00 to 6.70

Looking up CNS(=O)(=O)c1ccc(S(=O)(=O)NC(=O)Nc2c3c(nc4c2CCC4)CCC3)c(CO)c1 [Compound 103] , I see its pIC50 listed as 6.00 to 6.70

Sure, the documented pIC50 for CNS(=O)(=O)c1ccc(S(=O)(=O)NC(=O)Nc2c3c(nc4c2CCC4C)CCC3)c(CO)c1 (stereo not shown) [Compound 203] is 5.30 to 6.00

In plain terms, CC(C)(O)c1nc(CO)c(S(=O)(=O)NC(=O)Nc2c3c(nc4c2CCC4(C)C)CCC3)s1 [Compound 201] has a documented pIC50 of 6.00 to 6.70

For CNS(=O)(=O)c1ccc(S(=O)(=O)NC(=O)Nc2c(C(C)C)cc(C#N)cc2C(C)C)c(O)c1 [Compound 119] the compound record lists pIC50 as 6.70 to 7.40

The recorded pIC50 for CNS(=O)(=O)c1ccc(S(=O)(=O)NC(=O)Nc2c(C(C)C)cc(C#N)cc2C(C)C)c(CO)c1 [Compound 116] is 6.00 to 6.70
